B1: VH:VL chains; a variant is named by its letters at X, in order (parent)
chain 1: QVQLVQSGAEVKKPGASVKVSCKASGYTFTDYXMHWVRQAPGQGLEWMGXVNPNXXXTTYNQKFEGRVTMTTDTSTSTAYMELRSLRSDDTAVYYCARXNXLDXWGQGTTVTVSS
chain 2: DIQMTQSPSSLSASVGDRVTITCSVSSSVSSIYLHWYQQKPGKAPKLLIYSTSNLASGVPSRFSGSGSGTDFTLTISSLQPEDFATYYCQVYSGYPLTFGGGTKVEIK

Variants of: B1
Assay details: yeast display scFab, FACS + sequencing
Test conditions: with MET
The other results are listed elsewhere or left out. How many sequences the whole screen found active is unknown.

# Variant identifier, antigen binding call
data = [
    ("YRTRGSGY", "binds"),
    ("SEGRGDAA", "no binding"),
    ("YRARGVVV", "no binding"),
    ("YRTRGSLY", "binds"),
    ("YRRRGVVV", "binds"),
    ("YTRGADVV", "no binding"),
    ("SEARSDGY", "no binding"),
    ("VETEGSGV", "no binding"),
    ("VKARSAGV", "no binding"),
    ("VRTRGSGV", "binds"),
    ("FKGEGYGV", "no binding"),
    ("VKGRADAA", "no binding"),
    ("VKARGSAV", "binds"),
    ("VEERDDWF", "no binding"),
    ("VRERGDGV", "no binding"),
    ("VKTGGSLD", "no binding"),
    ("VRARGAAD", "binds"),
    ("YRGESAVD", "binds"),
    ("VAGGDDGF", "no binding"),
    ("FTGRAAAV", "no binding"),
    ("YTARGSAA", "binds"),
    ("YKTRGSLD", "binds"),
    ("VKGASDGA", "no binding"),
    ("FRRGSALA", "binds"),
    ("FREKDSAD", "no binding"),
]

Values compiled from the emibetuzumab library of Makowski et al. (2022).
